Biological target: Inadl_10, Q8NI35
Sequence (Q8NI35 1673-1763): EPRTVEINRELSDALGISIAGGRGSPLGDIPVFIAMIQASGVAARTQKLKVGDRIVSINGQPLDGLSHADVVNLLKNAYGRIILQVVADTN
Experiment: holdup assay
Set-up: key: below the threshold = too weak to quantify, mostly under pKd 3.1 to 4
Conditions: plain residues with an end cap or a label only (N-terminal biotin on a linker: ahx)
Quantity measured: pKd

>>> value_measured("EKQAKGDTEF [CACYBP, Q9HB71]")
"below the threshold"
>>> value_measured("TESNLQTSSC [CGN, Q9P2M7]")
3.6
>>> value_measured("APSRKLNTEI [TIAM1, Q13009]")
"below the threshold"
>>> value_measured("QDEKVKESYV [ABCA1, O95477]")
"below the threshold"
